target: HDAC-3 (Homo sapiens); test: Selectivity against human off-targets: HDAC-3; assay type: biochemical
Sequence (O15379 whole entry): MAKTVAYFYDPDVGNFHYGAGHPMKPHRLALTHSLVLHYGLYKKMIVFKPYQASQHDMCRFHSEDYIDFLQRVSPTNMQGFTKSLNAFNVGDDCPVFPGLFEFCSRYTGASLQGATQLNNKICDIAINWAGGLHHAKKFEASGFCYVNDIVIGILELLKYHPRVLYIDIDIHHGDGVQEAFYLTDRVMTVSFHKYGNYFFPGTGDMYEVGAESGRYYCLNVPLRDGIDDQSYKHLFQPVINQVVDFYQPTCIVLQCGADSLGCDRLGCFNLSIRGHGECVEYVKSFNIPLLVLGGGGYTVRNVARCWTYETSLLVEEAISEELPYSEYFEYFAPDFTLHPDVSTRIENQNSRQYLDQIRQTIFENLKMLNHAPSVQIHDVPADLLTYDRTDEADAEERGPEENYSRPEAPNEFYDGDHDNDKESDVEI
Sequence (Q9Y618 395-489 partner limits assumed): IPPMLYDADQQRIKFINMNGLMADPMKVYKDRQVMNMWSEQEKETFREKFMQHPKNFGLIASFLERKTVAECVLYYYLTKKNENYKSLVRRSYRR
measured_quantity: IC50

| compound | system_under_test | reported_value |
| --- | --- | --- |
| Cc1ccc(NC(=O)C(CC(C)C)P(=O)(O)O)cc1 (stereo not shown) [Example 63] | HDAC-3 (Homo sapiens) | > 100 µM |

---

biological target: ADAM17 (TACE) (Homo sapiens); assay: Selectivity against human off-targets: ADAM17 (TACE); type: biochemical; details: read-out: IC50 ADAM17 (TACE)
Sequence (P78536 215-824): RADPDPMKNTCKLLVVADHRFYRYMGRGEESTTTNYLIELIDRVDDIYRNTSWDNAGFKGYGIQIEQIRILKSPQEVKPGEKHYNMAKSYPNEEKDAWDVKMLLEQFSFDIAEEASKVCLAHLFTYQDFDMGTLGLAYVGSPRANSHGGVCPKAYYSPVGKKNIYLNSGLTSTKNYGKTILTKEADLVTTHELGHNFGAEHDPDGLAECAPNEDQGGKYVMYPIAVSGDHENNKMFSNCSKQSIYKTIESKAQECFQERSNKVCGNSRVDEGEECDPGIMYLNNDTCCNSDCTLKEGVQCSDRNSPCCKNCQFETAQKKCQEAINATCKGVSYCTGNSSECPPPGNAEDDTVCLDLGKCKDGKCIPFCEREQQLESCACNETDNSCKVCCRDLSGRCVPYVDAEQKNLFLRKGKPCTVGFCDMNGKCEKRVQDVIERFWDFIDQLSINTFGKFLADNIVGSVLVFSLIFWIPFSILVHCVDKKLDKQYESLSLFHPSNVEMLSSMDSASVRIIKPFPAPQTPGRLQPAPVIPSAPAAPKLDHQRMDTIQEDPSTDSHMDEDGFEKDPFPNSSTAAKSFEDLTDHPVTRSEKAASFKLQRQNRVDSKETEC
pIC50: −log10 of the molar value.
pIC50 below 5 gives False; pIC50 at or above it gives True.

| compound | classification |
| --- | --- |
| Cc1ccc(NC(=O)C(S)Cc2ccccc2)cc1 (centres unmarked) | True |
| Cc1ccc(NC(=O)C(S)CC(C)C)cc1 (centres unmarked) | True |
| Cc1ccc(NC(=O)C(CC(C)C)C(=O)NO)cc1 (centres unmarked) | False |
| Cc1ccc(NC(=O)C(CC(C)C)n2ccnn2)cc1 (centres unmarked) | False |
| CC(C)CC(C(=O)N[C@H](C(=O)Nc1ccc(Cl)c(Cl)c1)C(C)C)P(=O)(O)O (mixture of isomers) | False |
| O=C(Nc1ccccc1)C(S)Cc1ccccc1 (racemic) [Example 1, 2-Mercapto-N,3-diphenylpropanamide] | True |
| Cc1ccc(NC(=O)C(CC(C)C)n2nccn2)cc1 (centres unmarked) | False |
| O=C(Nc1ccc(O)cc1)C(S)Cc1ccccc1 (centres unmarked) | True |

---

target: MMP-1 (Homo sapiens, UniProt P03956); experiment: Selectivity against human off-targets: MMP-1; assay type: biochemical; conditions: at 100 μM; read-out: Inhibition [%] MMP-1
Sequence (P03956 100-469): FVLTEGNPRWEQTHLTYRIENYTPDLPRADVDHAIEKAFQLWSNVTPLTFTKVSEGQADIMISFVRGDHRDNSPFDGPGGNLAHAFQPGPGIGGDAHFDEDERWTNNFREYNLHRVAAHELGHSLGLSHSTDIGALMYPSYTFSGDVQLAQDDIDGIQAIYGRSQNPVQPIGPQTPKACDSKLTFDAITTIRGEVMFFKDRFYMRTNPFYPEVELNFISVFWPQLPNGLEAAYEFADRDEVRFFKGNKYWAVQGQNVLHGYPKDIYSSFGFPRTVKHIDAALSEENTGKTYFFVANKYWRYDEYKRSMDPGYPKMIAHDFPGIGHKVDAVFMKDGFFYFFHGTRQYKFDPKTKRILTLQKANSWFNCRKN

| compound | system_under_test | unit_string | result_operator | inhibition at 100 µM |
| --- | --- | --- | --- | --- |
| Cc1ccc(NC(=O)C(CC(C)C)P(=O)(O)O)cc1 (centres unmarked) | MMP-1 (Homo sapiens, UniProt P03956) | % | < | 10 |
| CC(C)CC(C(=O)N[C@H](c1nc2cc(Oc3ccccc3)ccc2[nH]1)C(C)C)P(=O)(O)O (mixture of isomers) | MMP-1 (Homo sapiens, UniProt P03956) | % | = | 18 |
| CC(C)CC(C(=O)N[C@H](c1cn(-c2ccc(Cl)c(Cl)c2)nn1)C(C)C)P(=O)(O)O (mixture of isomers) | MMP-1 (Homo sapiens, UniProt P03956) | % | = | 11 |
| Cc1ccc(NC(=O)C(CC(C)C)n2nccn2)cc1 (centres unmarked) | MMP-1 (Homo sapiens, UniProt P03956) | % | = | 7 |
| CC(C)CC(C(=O)Nc1ccc(-c2ccc(Cl)cc2)nc1)P(=O)(O)O (centres unmarked) | MMP-1 (Homo sapiens, UniProt P03956) | % | < | 10 |

---

target: UniProt P08253; assay: Selectivity against human off-targets: MMP-2; format: biochemical; conditions: at 100 μM; read-out: Inhibition [%] MMP-2
Sequence (P08253 110-660): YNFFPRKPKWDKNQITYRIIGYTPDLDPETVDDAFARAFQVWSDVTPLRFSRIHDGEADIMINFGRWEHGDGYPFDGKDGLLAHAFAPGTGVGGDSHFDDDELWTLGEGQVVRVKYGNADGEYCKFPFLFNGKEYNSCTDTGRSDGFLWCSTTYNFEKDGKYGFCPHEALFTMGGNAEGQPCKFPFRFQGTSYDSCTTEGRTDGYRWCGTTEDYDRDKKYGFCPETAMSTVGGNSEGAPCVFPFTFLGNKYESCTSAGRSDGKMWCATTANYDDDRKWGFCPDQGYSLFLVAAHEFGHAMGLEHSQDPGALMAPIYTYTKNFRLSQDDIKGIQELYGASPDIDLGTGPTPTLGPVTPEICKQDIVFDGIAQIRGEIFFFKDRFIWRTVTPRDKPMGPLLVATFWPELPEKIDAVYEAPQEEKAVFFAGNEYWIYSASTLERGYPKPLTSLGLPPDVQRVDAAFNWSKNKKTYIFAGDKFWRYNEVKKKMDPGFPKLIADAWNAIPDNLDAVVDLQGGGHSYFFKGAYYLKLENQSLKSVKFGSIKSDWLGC
Below, each entry is listed alongside its reported inhibition at 100 µM.

| compound | inhibition at 100 µM |
| --- | --- |
| CC(C)CC(C(=O)Nc1ccc(NS(=O)(=O)c2ccc(Cl)c(Cl)c2)cc1)P(=O)(O)O (stereo not drawn) | < 10% |
| CC(C)CC(C(=O)N[C@H](c1cn(-c2ccc(Cl)c(Cl)c2)nn1)C(C)C)P(=O)(O)O (mixture of isomers) | < 10% |
| Cc1ccc(NC(=O)C(CC(C)C)P(=O)(O)O)cc1 (stereo not drawn) | < 10% |

---

Below, each entry is listed alongside its reported IC50.
target: LasB (Pseudomonas aeruginosa, UniProt Q02RJ6); test: biochemical; set-up: species or system P. aeruginosa; settings: IC50 against LasB
Sequence (Q02RJ6 198-498): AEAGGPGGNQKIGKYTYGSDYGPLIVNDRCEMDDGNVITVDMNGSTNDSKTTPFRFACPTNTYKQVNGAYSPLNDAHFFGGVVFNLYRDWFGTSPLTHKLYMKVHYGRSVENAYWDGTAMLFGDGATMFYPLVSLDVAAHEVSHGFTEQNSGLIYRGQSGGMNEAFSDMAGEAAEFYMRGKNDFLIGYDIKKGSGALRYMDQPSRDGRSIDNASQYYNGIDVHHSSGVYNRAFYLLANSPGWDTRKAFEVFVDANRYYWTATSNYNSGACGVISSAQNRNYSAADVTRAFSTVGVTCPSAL
measured_quantity: IC50 (nM)

| compound | measured_quantity | unit_string | reported_value |
| --- | --- | --- | --- |
| CC(C)CC(C(=O)NCC(=O)Nc1ccc(Cl)c(Cl)c1)P(=O)(O)O (stereo not shown) | IC50 | nM | 1760 |
| CC(C)CC(C(=O)N[C@@H](C(=O)Nc1ccc(Cl)c(Cl)c1)C(C)C)P(=O)(O)O (stereo partly shown) | IC50 | nM | 11 |
| CC(C)C[C@H](C(=O)N[C@@H](Cc1cccnc1)C(=O)Nc1ccc(Cl)c(Cl)c1)P(=O)(O)O | IC50 | nM | 573 |
| O=C(Nc1ccccc1)C(S)Cc1ccccc1 (racemic) [Example 1, 2-Mercapto-N,3-diphenylpropanamide] | IC50 | nM | 1200 |
| O=C(Nc1ccccc1)C(S)Cc1ccccc1 (single isomer, unassigned) [Example 1 E1, 2-Mercapto-N,3-diphenylpropanamide] | IC50 | nM | 4800 |
| CCC(S)C(=O)Nc1ccc(C(C)=O)cc1 (stereo not shown) | IC50 | nM | 10000 |
| CC(C)CC(C(=O)Nc1ccc2c(c1)CCC2)P(=O)(O)O (stereo not shown) | IC50 | nM | 44 |
| CC(C)CC(C(=O)N[C@@H](C)C(=O)Nc1ccc(Cl)c(Cl)c1)P(=O)(O)O (stereo partly shown) | IC50 | nM | 62 |
| O=C(Nc1nc2ccccc2[nH]1)C(S)Cc1ccccc1 (stereo not shown) | IC50 | nM | 7700 |
| CC(C)CC(C(=O)N[C@H](C(=O)Nc1ccc(Cl)c(Cl)c1)C1CCCCC1)P(=O)(O)O (stereo partly shown) | IC50 | nM | 12 |
| Cc1ccc(NC(=O)C(Cc2ccccc2)P(=O)(O)O)cc1 (stereo not shown) | IC50 | nM | 137 |
| CC(C)CC(C(=O)Nc1ccc(Br)nn1)P(=O)(O)O (stereo not shown) | IC50 | nM | 7910 |
| CC(C)CC(C(=O)NC1CCN(Cc2ccc(Cl)cc2)CC1)P(=O)(O)O (stereo not shown) | IC50 | nM | 2270 |
| CC(C)CC(C(=O)N[C@H](CC(=O)Nc1ccc(Cl)c(Cl)c1)C(C)C)P(=O)(O)O (stereo partly shown) | IC50 | nM | 1760 |
| CCC(C)C(S)C(=O)Nc1ccc(OC)cc1 (stereo not shown) | IC50 | nM | 17000 |
| CC(C)CC(C(=O)Nc1ccc(Cl)nc1)P(=O)(O)O (stereo not shown) | IC50 | nM | 1130 |
| COc1ccc(NC(=O)C(S)C(C)C)cc1 (stereo not shown) | IC50 | nM | 16000 |
| CC(C)CC(C(=O)NC12CC(C(=O)Nc3ccc(Cl)c(Cl)c3)(C1)C2)P(=O)(O)O (stereo not shown) | IC50 | nM | 347 |
| COc1ccc(NC(=O)C(S)CC2CCCCC2)cc1 (stereo not shown) | IC50 | nM | 2600 |
| CC(=O)c1ccc(NC(=O)C(CC(C)C)P(=O)(O)O)cc1 (stereo not shown) | IC50 | nM | 40 |
| CC(C)C(CC(=O)N1CCN(Cc2ccc(-c3ccc(Cl)cc3)cc2)CC1)P(=O)(O)O (stereo not shown) | IC50 | nM | 7280 |
| CC(C)CC(C(=O)N[C@@H](CC1CCCCC1)C(=O)Nc1ccc(Cl)c(Cl)c1)P(=O)(O)O (stereo partly shown) | IC50 | nM | 242 |

---

biological target: LasB (Pseudomonas aeruginosa); assay: biochemical; set-up: species or system P. aeruginosa; conditions: IC50 against LasB
Below, each entry is listed alongside its reported IC50.
measured_quantity: IC50 (µM)

| molecule | measured_quantity | reported_value |
| --- | --- | --- |
| CC(C)CC(S)C(=O)Nc1ccc(Cl)cc1 (stereo not drawn) | IC50 | 0.84 |
| CC(C)CC(C(=O)N1CCN(c2ncc(Br)cn2)CC1)P(=O)(O)O (stereo not drawn) | IC50 | 35.8 |
| CCC(S)C(=O)Nc1ccc(OC)cc1 (stereo not drawn) | IC50 | 4.2 |
| CC(C)CC(C(=O)Nc1ccc(Cl)cn1)P(=O)(O)O (stereo not drawn) | IC50 | 0.501 |
| COc1cccc(NC(=O)C(S)CC(C)C)c1 (stereo not drawn) | IC50 | 0.56 |
| COc1ccc(NC(=O)C(S)CC2CC2)cc1 (stereo not drawn) | IC50 | 3.9 |
| CCC(S)C(=O)Nc1ccc(Cl)c(Cl)c1 (stereo not drawn) | IC50 | 2.4 |
| CC(C)CC(S)C(=O)Nc1nc2ccccc2s1 (stereo not drawn) | IC50 | 0.65 |
| CC(C)CC(C(=O)Nc1cccc2ccccc12)P(=O)(O)O (stereo not drawn) | IC50 | 0.069 |

---

target: LasB (Pseudomonas aeruginosa); experiment: biochemical; set-up: species or system P. aeruginosa; settings: IC50 against LasB
Threshold 700 nM. IC50 below it: True. IC50 at it or above: False.

| molecule | classification |
| --- | --- |
| CC(C)CC(C(=O)Nc1ccc2ccccc2c1)P(=O)(O)O (centres unmarked) | True |
| CC(C)CC(C(=O)Nc1ccc(OCc2ccc(Cl)c(Cl)c2)cc1)n1ccnn1 (centres unmarked) | False |
| CC(C)CC(S)C(=O)Nc1ccc(Cl)c(Cl)c1 (centres unmarked) | False |
| CC(C)CC(C(=O)Nc1ccc(NS(=O)(=O)c2ccc3c(c2)CN(C(=O)C(F)(F)F)CC3)cc1)P(=O)(O)O (centres unmarked) | True |
